Each entry below carries its measured pKi, system: Sodium-dependent noradrenaline transporter (Homo sapiens).
Sequence (P23975 whole entry): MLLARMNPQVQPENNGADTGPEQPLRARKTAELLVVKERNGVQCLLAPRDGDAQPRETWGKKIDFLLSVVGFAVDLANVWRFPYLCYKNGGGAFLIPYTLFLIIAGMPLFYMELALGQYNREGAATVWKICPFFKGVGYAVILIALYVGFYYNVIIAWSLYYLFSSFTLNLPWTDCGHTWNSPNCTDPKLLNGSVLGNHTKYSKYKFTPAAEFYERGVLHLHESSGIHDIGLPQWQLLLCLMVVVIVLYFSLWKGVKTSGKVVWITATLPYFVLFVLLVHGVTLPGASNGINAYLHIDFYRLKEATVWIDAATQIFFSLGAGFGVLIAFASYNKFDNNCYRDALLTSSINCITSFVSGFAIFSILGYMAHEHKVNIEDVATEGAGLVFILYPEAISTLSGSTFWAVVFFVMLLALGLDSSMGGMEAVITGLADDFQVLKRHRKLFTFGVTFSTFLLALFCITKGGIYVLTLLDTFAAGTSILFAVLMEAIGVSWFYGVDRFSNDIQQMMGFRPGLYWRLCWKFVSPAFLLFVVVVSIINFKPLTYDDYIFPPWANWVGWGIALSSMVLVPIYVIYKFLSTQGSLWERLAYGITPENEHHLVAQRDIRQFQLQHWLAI
Scale for pKi: -log10 of concentration given in mol/L; no unit attached.

1. C[n+]1ccc(-c2ccccc2)cc1; 6.29

Continue with the next molecule.
## Input Fetch value of pKi on Sodium-dependent noradrenaline transporter (Homo sapiens) for CNCC(O)c1ccc(O)c(O)c1 (configuration not stated) [EPINEPHRINE] .
## Output 5.43

----------
Each entry below carries its measured pKi, system: Norepinephrine transporter (Rattus norvegicus, UniProt Q9JIA2).
Scale for pKi: -log10 of concentration given in mol/L; no unit attached.

1. CNCC(O)c1ccc(O)c(O)c1 (configuration not stated) [EPINEPHRINE]; 5.19

Continue with the next compound.
## Input Fetch value of pKi on Norepinephrine transporter (Rattus norvegicus, UniProt Q9JIA2) for `C[n+]1ccc(-c2ccccc2)cc1` .
## Output 6.11
